Data provenance: PubChem BioAssay AID1963856

Recorded measurements of viability, T/C, one per entry
- System: LG0567-F671-PDC KRAS tumor spheroid viability;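 note: drug exposure lasted seven days after spheroids formed for three days; 100% = DMSO vehicle control viability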
- method: Anticancer human tumor LG0567-F671-PDC patient-derived lung adenocarcinoma cell line growth inhibition [KRAS2]
- details: second compound 1 µM; first compound 3.16 µM; stronger effect = lower value; spheroids with HUVEC and MSC
Your answer is read as %, so omit the unit and give the number.

Illustrative cases are given below, each with its answer.
CC1(C)CCC(CN2CCN(c3ccc(C(=O)NS(=O)(=O)c4ccc(NCC5CCOCC5)c([N+](=O)[O-])c4)c(Oc4cnc5[nH]ccc5c4)c3)CC2)=C(c2ccc(Cl)cc2)C1 + CC1OCC2(CCN(c3cnc(Sc4ccnc(N)c4Cl)c(N)n3)CC2)C1N ... 8.05
CC(=O)OC12COC1CC(O)C1(C)C(=O)C(O)C3=C(C)C(OC(=O)C(O)C(NC(=O)OC(C)(C)C)c4ccccc4)CC(O)(C(OC(=O)c4ccccc4)C21)C3(C)C (stereo not given) + C=CC(=O)N1CCN(c2nc(OCC3CCCN3C)nc3c2CCN(c2cccc4cccc(C)c24)C3)CC1CC#N ... 14.4
CC(C)NCC(C(=O)N1CCN(c2ncnc3c2C(C)CC3O)CC1)c1ccc(Cl)cc1 (stereo not given) + COc1cc2nc(C)nc(NC(C)c3cc(N)cc(C(F)(F)F)c3)c2cc1OC1CCOC1 ... 7.19
CC(C)NCC(C(=O)N1CCN(c2ncnc3c2C(C)CC3O)CC1)c1ccc(Cl)cc1 (stereo not given) + C=CC(=O)N1CCN(c2nc(=O)n(-c3c(C)ccnc3C(C)C)c3nc(-c4c(O)cccc4F)c(F)cc23)C(C)C1 ... 14.4

Next:
Form field - read-out: viability, T/C; system: LG0567-F671-PDC KRAS tumor spheroid viability; submitted item: CCNC(=O)CC1N=C(c2ccc(Cl)cc2)c2cc(OC)ccc2-n2c(C)nnc21 (stereo not given) + C=CC(=O)N1CCN(c2nc(=O)n(-c3c(C)ccnc3C(C)C)c3nc(-c4c(O)cccc4F)c(F)cc23)C(C)C1;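 note: drug exposure lasted seven days after spheroids formed for three days; 100% = DMSO vehicle control viability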
15.8
